Attribution: patent US4575498A

# study.system: adenylosuccinate lyase (cardiac muscle) (Mus musculus)
# Sequence (P54822 2-484 limits assumed): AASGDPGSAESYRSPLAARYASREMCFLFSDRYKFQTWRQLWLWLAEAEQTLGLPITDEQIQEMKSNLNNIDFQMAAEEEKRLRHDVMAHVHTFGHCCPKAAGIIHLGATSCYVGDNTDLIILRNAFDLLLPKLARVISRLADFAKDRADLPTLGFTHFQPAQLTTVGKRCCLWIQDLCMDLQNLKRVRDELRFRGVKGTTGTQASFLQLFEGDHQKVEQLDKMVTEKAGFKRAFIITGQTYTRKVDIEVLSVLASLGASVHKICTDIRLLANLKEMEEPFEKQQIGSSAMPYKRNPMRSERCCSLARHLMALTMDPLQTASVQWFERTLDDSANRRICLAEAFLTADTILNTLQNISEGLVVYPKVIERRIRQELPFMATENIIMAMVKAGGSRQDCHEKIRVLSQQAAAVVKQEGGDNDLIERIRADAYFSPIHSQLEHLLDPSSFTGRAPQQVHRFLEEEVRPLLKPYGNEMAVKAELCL
measurement.label: Ki (µM)
Expressed in µM, but write only the number.

GET /values?readout=Ki&item= NC(=O)c1ncn([C@@H]2O[C@H](COP(=O)(O)O)[C@@H](O)[C@H]2O)c1N [AICAR, 5-Amino-4-imidazolecarboxamide Ribotide]
4.5

---

# measurement.notes: AICAriboside plasma concentration during infusion
# Type: in vivo, mongrel dogs
# condition: dog, after 42 min of infusion, 100 mM at 1.9 ml/min into left atrium
measurement.label: concentration at 0.7 h (µM)
Expressed in µM, but write only the number.

GET /values?readout=concentration at 0.7 h&item= NC(=O)c1ncn([C@@H]2O[C@H](CO)[C@@H](O)[C@H]2O)c1N [AICAriboside, 5-amino-4-imidazolecarboxamide riboside]
336

---

# study.system: adenylosuccinate lyase (skeletal muscle) (Mus musculus, UniProt P54822)
# Sequence (P54822 2-484 limits assumed): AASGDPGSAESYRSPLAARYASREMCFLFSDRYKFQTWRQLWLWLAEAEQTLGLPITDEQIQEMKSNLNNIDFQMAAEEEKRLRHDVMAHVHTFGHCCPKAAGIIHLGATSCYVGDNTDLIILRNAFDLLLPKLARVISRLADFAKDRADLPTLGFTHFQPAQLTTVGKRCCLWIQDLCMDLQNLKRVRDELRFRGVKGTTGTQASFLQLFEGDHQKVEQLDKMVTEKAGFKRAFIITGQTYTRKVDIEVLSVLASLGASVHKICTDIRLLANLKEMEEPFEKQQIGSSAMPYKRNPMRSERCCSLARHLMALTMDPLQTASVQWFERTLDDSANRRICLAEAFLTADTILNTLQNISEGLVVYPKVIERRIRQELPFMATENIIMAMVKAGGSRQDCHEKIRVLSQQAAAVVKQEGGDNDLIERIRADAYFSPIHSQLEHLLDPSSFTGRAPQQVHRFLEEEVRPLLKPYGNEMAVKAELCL
measurement.label: pKi
Please keep in mind that pKi is minus log10 of the molar concentration; only the number is needed.

GET /values?readout=pKi&item= NC(=O)c1ncn([C@@H]2O[C@H](COP(=O)(O)O)[C@@H](O)[C@H]2O)c1N [AICAR, 5-Amino-4-imidazolecarboxamide Ribotide]
5.12
